From: PubChem BioAssay AID1159580

EXPERIMENTAL_DETAILS: chemical genetic growth profiling, strain panel (AID 1159580);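 further: tested at 20 µM; growth read once vehicle control cultures reached saturation at 30 °C; 1 = growth at the plate median or of vehicle wells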
COND: S. cerevisiae deletion strains, growth OD, locus YNL067W, strain RPL9B, stronger effect = lower value
The whole screen tested about 5,500 compounds, of which about 2,000 (36%) were called active. Another 18% or so got no clear call; they are omitted. The list shows a part of the results.
Catalogue of normalized growth values

# annotated cases, reported normalized growth shown
compound=CC(=O)OCC1=C(C(=O)O)N2C(=O)[C@@H](NC(=O)Cc3cccs3)[C@H]2SC1 result="1.01 (inactive)"
compound="COC(=O)C[C@H]1C(C)(C)C2(Cl)O[C@@]34CC2C(=O)[C@]1(C)C3CC[C@]1(C)C4=CC(=O)O[C@H]1c1ccoc1 (stereo partly drawn)" result="1 (inactive)"
compound=CCOC(=O)c1c(C)cc(OC)cc1O result="0.99 (inactive)"
compound=COC(=O)c1c(C)cc(OC)cc1O result="0.994 (inactive)"
compound=COc1ccccc1/C=C\C(=O)O result="1.01 (inactive)"

Entry CC(C)(C)NCC(O)c1cc(Cl)c(N)c(Cl)c1 (stereo not drawn) — recorded normalized growth = 1.01 (inactive)

Item: NC(=O)c1ncn([C@@H]2O[C@H](CO)[C@@H](O)[C@H]2O)n1 | normalized growth: 1 (inactive)

Recorded normalized growth (compound COC(=O)C1OC(=O)C2OC23C1(C)CCC1C2(C)C(OC(C)=O)CC(OC(C)=O)C(C)(C)C2CC(=O)C13C (stereo not drawn) ): 0.994 (inactive)

Documented normalized growth of CCCCOc1cc(C(=O)NCCN(CC)CC)c2ccccc2n1 : 0.995 (inactive)

Entry CO[C@@]1(NC(=O)C(C(=O)O)c2ccc(O)cc2)C(=O)N2C(C(=O)O)=C(CSc3nnnn3C)CO[C@@H]21 (stereo partly drawn) , normalized growth reported as 1.02 (inactive)

Input Cc1cc(OC(=O)c2c(C)cc(OC(=O)c3c(C)cc(O)cc3O)cc2O)cc(O)c1C(=O)O . Output normalized growth: 1.01 (inactive)

Value of measured normalized growth for the entry Cc1[nH]ccc2c1[nH]c1cc(=O)ccc12 : 1 (inactive)

Per the records, this compound ( C[N+](C)(C)CC(O)CC(=O)O (stereo not drawn) ) has normalized growth equal to 1 (inactive)

So for OCC(O)C(O)C(O)C(O)C(O)CO (stereo not drawn) , the logged normalized growth turned out to be 1.02 (inactive)

// normalized growth value for CC12CCC3c4ccc(OC(=O)c5ccccc5)cc4CCC3C1CCC2O (stereo not drawn) : 1.01 (inactive)

// normalized growth value for C[C@]12CCC3c4ccc(O)cc4CCC3C1CC[C@@H]2O (stereo partly drawn) : 0.978 (inactive)

Measured normalized growth of CCc1cccc(CC)c1N(COC)C(=O)CCl : 1 (inactive)

Consider O=C(Cc1cccs1)NC1C(=O)N2C(C(=O)[O-])=C(C[n+]3ccccc3)CSC12 (stereo not drawn) . Its measured normalized growth is 1.02 (inactive)

* * *

EXPERIMENTAL_DETAILS: chemical genetic growth profiling, strain panel (AID 1159580);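 further: tested at 20 µM; growth read once vehicle control cultures reached saturation at 30 °C; 1 = growth at the plate median or of vehicle wells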
COND: S. cerevisiae deletion strains, growth OD, locus YPL256C, strain CLN2
Screen size: about 5,500 compounds; about 2,000 (36%) were called active. Roughly 18% stayed inconclusive and do not appear here. No stated cut-off is given here; in the data, active means normalized growth mostly below about 0.91 (no sharp cut-off); inconclusive means no clear call, values can overlap the other calls; inactive means mostly above about 0.92. The list shows a part of the results.
Allowed answers: active, inactive

molecule="COP(=O)(OC)C(O)C(Cl)(Cl)Cl (configuration not stated)" class_name=inactive
molecule=COc1ccc(Cl)cc1C(=O)NCCc1ccc(S(=O)(=O)NC(=O)NC2CCCCC2)cc1 class_name=inactive
molecule="C[C@]12CCC3c4ccc(O)cc4CCC3C1C[C@@H](O)[C@@H]2O (some centres not stated)" class_name=inactive

Now look at this entry.
Could you kindly confirm the outcome this assay logged for CCCCCCC(C)OC(=O)COc1ccc(Cl)cc1Cl (configuration not stated) ?
inactive
